method_summary: Pharmacokinetic evaluation, oral dosing in rats
Assay type: in vivo, rat
condition: rat, plasma, po, 10 mg/kg, 10 mg/kg oral, SSV, non-fasted rats; read-out: Cmax
Description: • Dose—10 mg/kg (5 mL/kg) • Route—ORAL • Vehicles—10% DMSO/10% Solutol and SSV • Time—24 h • Procedure Number—6 Vehicles • 10% DMSO/10% Solutol/80% Saline • 1) Compound was weighed out into a clean vial. • 2) DMSO was added into the vial; the vial was vortexed and sonicated it for 15 min. • 3) Solutol HS 15 was heated at 50° C. until a liquid formed, and then was added into the vial. The vial was vortexed for 1-2 min. • 4) 0.9% Saline solution was added to the vial. […]
quantity_measured: Cmax (ng/mL)
One number for each entry, in ng/mL.

## Task So what does the record say about Cmax for CC(C)c1cc(C(=O)N2CCOCC2)cc(C(C)C)c1O ?
## Result 2120

---

method_summary: Pharmacokinetic evaluation, oral dosing in rats
Format: in vivo, rat
condition: rat, plasma, po, 10 mg/kg, 10 mg/kg oral, 10% DMSO/10% Solutol/80% Saline, fasted rats; read-out: Cmax
quantity_measured: Cmax (ng/mL)
Answers are plain numbers, in ng/mL.

## Task So what does the record say about Cmax for CC(C)c1cc(C(=O)N2CCOCC2)cc(C(C)C)c1O ?
## Result 2420

---

method_summary: Pharmacokinetic evaluation, oral dosing in rats
Format: in vivo, rat
condition: rat, plasma, po, 10 mg/kg, 10 mg/kg oral, SSV, fasted rats
quantity_measured: AUC(0-inf) (ng·h/mL)
Answers are plain numbers, in ng·h/mL.

## Task So what does the record say about AUC(0-inf) for CC(C)c1cc(C(=O)N2CCOCC2)cc(C(C)C)c1O [LT-01-25] ?
## Result 18100

---

method_summary: Human microsomal stability
Type: in vitro ADME
condition: human liver microsomes, read-out: t1/2 (values marked *)
quantity_measured: half-life at 1 μM (h)
Give bare numbers, in h.

## Task So what does the record say about half-life at 1 μM for CC(C)c1cc(C(=O)N2CCOCC2)cc(C(C)C)c1O ?
## Result 8.25

---

method_summary: Pharmacokinetic evaluation, oral dosing in rats
Format: in vivo, rat
condition: rat, plasma, po, 10 mg/kg, 10 mg/kg oral, 10% DMSO/10% Solutol/80% Saline, fasted rats
quantity_measured: AUC(0-inf) (µg·h/mL)
Numbers only, in µg·h/mL.

## Task So what does the record say about AUC(0-inf) for CC(C)c1cc(C(=O)N2CCOCC2)cc(C(C)C)c1O ?
## Result 8.53

---

method_summary: Pharmacokinetic evaluation, oral dosing in rats
Type: in vivo, rat
condition: rat, plasma, po, 10 mg/kg, 10 mg/kg oral, SSV, fasted rats
quantity_measured: half-life (h)
Numbers only, in h.

## Task So what does the record say about half-life for CC(C)c1cc(C(=O)N2CCOCC2)cc(C(C)C)c1O [LT-01-25] ?
## Result 1.4

---

method_summary: Pharmacokinetic evaluation, oral dosing in rats
Format: in vivo, rat
condition: rat, plasma, po, 10 mg/kg, 10 mg/kg oral, 10% DMSO/10% Solutol/80% Saline, non-fasted rats
quantity_measured: half-life
Quick note: unit goes after the number.

## Task So what does the record say about half-life for CC(C)c1cc(C(=O)N2CCOCC2)cc(C(C)C)c1O ?
## Result 1.4 h

---

method_summary: Pharmacokinetic evaluation, oral dosing in rats
Type: in vivo, rat
condition: rat, plasma, po, 10 mg/kg, 10 mg/kg oral, 10% DMSO/10% Solutol/80% Saline, non-fasted rats; read-out: Cmax
quantity_measured: Cmax (ng/mL)
Numbers only, in ng/mL.

## Task So what does the record say about Cmax for CC(C)c1cc(C(=O)N2CCOCC2)cc(C(C)C)c1O ?
## Result 1710

---

method_summary: Pharmacokinetic evaluation, oral dosing in rats
Assay type: in vivo, rat
condition: rat, plasma, po, 10 mg/kg, 10 mg/kg oral, SSV, fasted rats; read-out: Cmax
Experimental: • Dose—10 mg/kg (5 mL/kg) • Route—ORAL • Vehicles—10% DMSO/10% Solutol and SSV • Time—24 h • Procedure Number—6 Vehicles • 10% DMSO/10% Solutol/80% Saline • 1) Compound was weighed out into a clean vial. • 2) DMSO was added into the vial; the vial was vortexed and sonicated it for 15 min. • 3) Solutol HS 15 was heated at 50° C. until a liquid formed, and then was added into the vial. The vial was vortexed for 1-2 min. • 4) 0.9% Saline solution was added to the vial. […]
quantity_measured: Cmax

## Task So what does the record say about Cmax for CC(C)c1cc(C(=O)N2CCOCC2)cc(C(C)C)c1O ?
## Result 2590 ng/mL

---

method_summary: Rat microsomal stability
Format: in vitro ADME
condition: rat, rat microsomes, second set marked *, read-out: t1/2 (values marked *)
Text: Rat and human microsomal stability data was obtained using well established protocols known to those skilled in the art.
quantity_measured: half-life at 1 μM (h)
One number for each entry, in h.

## Task So what does the record say about half-life at 1 μM for CC(C)c1cc(C(=O)N2CCOCC2)cc(C(C)C)c1O [LT-01-25] ?
## Result 19.2

---

method_summary: Rat microsomal stability
Type: in vitro ADME
condition: rat, rat microsomes, read-out: t1/2
quantity_measured: half-life at 1 μM
Quick note: unit goes after the number.

## Task So what does the record say about half-life at 1 μM for CC(C)c1cc(C(=O)N2CCOCC2)cc(C(C)C)c1O [LT-01-25] ?
## Result 12.3 h

---

experimental_target: α1 glycine receptor (Homo sapiens (Human))
Sequence (P23415 29-457 limits assumed): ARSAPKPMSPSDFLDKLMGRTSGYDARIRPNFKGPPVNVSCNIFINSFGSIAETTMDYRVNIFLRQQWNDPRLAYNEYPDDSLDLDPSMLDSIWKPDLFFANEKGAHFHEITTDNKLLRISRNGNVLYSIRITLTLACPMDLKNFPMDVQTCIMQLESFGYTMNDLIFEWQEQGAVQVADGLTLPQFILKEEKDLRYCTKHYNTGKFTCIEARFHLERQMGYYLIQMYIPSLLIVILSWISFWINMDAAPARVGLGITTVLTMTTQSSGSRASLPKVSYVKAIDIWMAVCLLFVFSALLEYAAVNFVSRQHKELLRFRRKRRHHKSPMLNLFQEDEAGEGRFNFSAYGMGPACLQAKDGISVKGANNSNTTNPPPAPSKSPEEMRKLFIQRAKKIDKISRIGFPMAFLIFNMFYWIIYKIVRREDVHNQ
method_summary: Expression and electrophysiological characterization of glycine receptor activity (patch/voltage clamp)
condition: modulation of agonist induced currents at glycine EC20; means ± s.d.
quantity_measured: EC50 (nM)
Give bare numbers, in nM.

Record excerpt, results attached:
compound | EC50 (nM)
CC(C)c1cc(C(=O)N2CC(F)C2)cc(C(C)C)c1O [Example 3] | 0.43
CC(C)c1cc(C(=O)N2CCO[C@H](C)C2)cc(C(C)C)c1O [Example 2] | 0.06

## Task So what does the record say about EC50 for CC(C)c1cc(C(=O)N2CCN(C)CC2)cc(C(C)C)c1O [Example 6] ?
## Result 0.0012

---

method_summary: Pharmacokinetic evaluation, oral dosing in rats
Assay type: in vivo, rat
condition: rat, plasma, po, 10 mg/kg, 10 mg/kg oral, 10% DMSO/10% Solutol/80% Saline, fasted rats
quantity_measured: half-life (h)
One number for each entry, in h.

## Task So what does the record say about half-life for CC(C)c1cc(C(=O)N2CCOCC2)cc(C(C)C)c1O ?
## Result 1.4

---

method_summary: Pharmacokinetic evaluation, oral dosing in rats
Format: in vivo, rat
condition: rat, plasma, po, 10 mg/kg, 10 mg/kg oral, SSV, non-fasted rats
Description: • Dose—10 mg/kg (5 mL/kg) • Route—ORAL • Vehicles—10% DMSO/10% Solutol and SSV • Time—24 h • Procedure Number—6 Vehicles • 10% DMSO/10% Solutol/80% Saline • 1) Compound was weighed out into a clean vial. • 2) DMSO was added into the vial; the vial was vortexed and sonicated it for 15 min. • 3) Solutol HS 15 was heated at 50° C. until a liquid formed, and then was added into the vial. The vial was vortexed for 1-2 min. • 4) 0.9% Saline solution was added to the vial. […]
quantity_measured: AUC(0-inf) (ng·h/mL)
Numbers only, in ng·h/mL.

## Task So what does the record say about AUC(0-inf) for CC(C)c1cc(C(=O)N2CCOCC2)cc(C(C)C)c1O ?
## Result 19000

---

method_summary: Pharmacokinetic evaluation, oral dosing in rats
Assay type: in vivo, rat
condition: rat, plasma, po, 10 mg/kg, 10 mg/kg oral, SSV, fasted rats; read-out: Tmax
quantity_measured: Tmax (h)
One number for each entry, in h.

## Task So what does the record say about Tmax for CC(C)c1cc(C(=O)N2CCOCC2)cc(C(C)C)c1O ?
## Result 1

This collection of values is drawn from patent US9676786B2.
